Tested on: L. jensenii
Assay: MIC against commensal vaginal Lactobacillus strains
Assay type: cell-based, Lactobacillus jensenii
Settings: Lactobacillus jensenii, L. jensenii HM-105
Excerpt: N. gonorrhoeae pathogenesis greatly depends on colonization of the reproductive tract. One of the natural barriers of such colonization is an intact healthy microbiome. Species of lactobacilli present in the genitourinary tract play a significant role in hindering colonization by Neisseria(1). A healthy vaginal microbiome that is dominated by Lactobacillus spp. is less susceptible to N. gonorrhoeae infection and other sexually transmitted diseases (STDs). […]
attribute-measured: MIC

Worked cases, answers included:
[[record]]
compound = "C[C@@H](c1nc(-c2ccc(C#N)cc2)cs1)[C@](O)(Cn1cncn1)c1cc(F)ccc1F"
attribute_measured = "MIC"
experimental_value = "> 256 µg/mL"

[[record]]
compound = "CCC(C)n1ncn(-c2ccc(N3CCN(c4ccc(OCC5COC(Cn6cncn6)(c6ccc(Cl)cc6Cl)O5)cc4)CC3)cc2)c1=O (centres unmarked)"
attribute_measured = "MIC"
experimental_value = "> 256 µg/mL"


Suppose we examine the compound CC[C@H]1OC(=O)[C@H](C)[C@@H](O[C@H]2C[C@@](C)(OC)[C@@H](O)[C@H](C)O2)[C@H](C)[C@@H](O[C@@H]2O[C@H](C)C[C@H](N(C)C)[C@H]2O)[C@](C)(O)C[C@@H](C)CN(C)[C@H](C)[C@@H](O)[C@]1(C)O ; what MIC value has been reported?
≤ 0.5 µg/mL

Suppose we examine the compound CO/N=C(\C(=O)N[C@@H]1C(=O)N2C(C(=O)O)=C(CSc3nc(=O)c(=O)[nH]n3C)CS[C@H]12)c1csc(N)n1 ; what MIC value has been reported?
≤ 0.5 µg/mL

Suppose we examine the compound C[C@@H](c1nc(-c2ccc(C#N)cc2)cs1)[C@](O)(Cn1cncn1)c1ccc(F)cc1F ; what MIC value has been reported?
> 256 µg/mL

---

system: L. gasseri; assay: MIC against commensal vaginal Lactobacillus strains; assay type: cell-based, Lactobacillus gasseri; conditions: Table 6, L. gasseri (4 strains)
attribute-measured: MIC Range

[[record]]
compound = "C[C@@H](c1nc(-c2ccc(C#N)cc2)cs1)[C@](O)(Cn1cncn1)c1cc(F)ccc1F [Isavuconazole]"
target = "L. gasseri"
attribute_measured = "MIC Range"
experimental_value = "≥256 µg/mL"

[[record]]
compound = "CO/N=C(\\C(=O)N[C@@H]1C(=O)N2C(C(=O)O)=C(CSc3nc(=O)c(=O)[nH]n3C)CS[C@H]12)c1csc(N)n1 [Ceftriaxone]"
target = "L. gasseri"
attribute_measured = "MIC Range"
experimental_value = "≤1 µg/mL"

[[record]]
compound = "C[C@@H](c1nc(-c2ccc(C#N)cc2)cs1)[C@](O)(Cn1cncn1)c1ccc(F)cc1F [Ravuconazole]"
target = "L. gasseri"
attribute_measured = "MIC Range"
experimental_value = "≥256 µg/mL"


For the next question, use this compound.
Suppose we examine the compound CC[C@H]1OC(=O)[C@H](C)[C@@H](O[C@H]2C[C@@](C)(OC)[C@@H](O)[C@H](C)O2)[C@H](C)[C@@H](O[C@@H]2O[C@H](C)C[C@H](N(C)C)[C@H]2O)[C@](C)(O)C[C@@H](C)CN(C)[C@H](C)[C@@H](O)[C@]1(C)O [Azithromycin] ; what MIC Range value has been reported?
≤1 µg/mL

---

MIC Range for assorted compounds
system: Lactobacillus casei; test: MIC against normal gut microbiota; format: cell-based; conditions: Lactobacillus casei (1 strain)
The reply should be a number in µg/mL, with the unit left off.

Worked cases, answers included:
[[record]]
sample_smiles = "CC[C@H]1OC(=O)[C@H](C)[C@@H](O[C@H]2C[C@@](C)(OC)[C@@H](O)[C@H](C)O2)[C@H](C)[C@@H](O[C@@H]2O[C@H](C)C[C@H](N(C)C)[C@H]2O)[C@](C)(O)C[C@@H](C)CN(C)[C@H](C)[C@@H](O)[C@]1(C)O"
target = "Lactobacillus casei"
experimental_value = 0.5

[[record]]
sample_smiles = "O=c1ccc2ncc(=O)n3c2n1C[C@H]3CN1CCC(NCc2cc3c(cn2)OCCC3)CC1"
target = "Lactobacillus casei"
experimental_value = 0.25


For the next question, use this compound.
Suppose we examine the compound CO/N=C(\C(=O)N[C@@H]1C(=O)N2C(C(=O)O)=C(CSc3nc(=O)c(=O)[nH]n3C)CS[C@H]12)c1csc(N)n1 ; what MIC Range value has been reported?
16

---

System: L. crispatus
Assay: MIC against commensal vaginal Lactobacillus strains
Assay type: cell-based, Lactobacillus crispatus
Conditions: Table 6, L. crispatus (3 strains)
Excerpt: N. gonorrhoeae pathogenesis greatly depends on colonization of the reproductive tract. One of the natural barriers of such colonization is an intact healthy microbiome. Species of lactobacilli present in the genitourinary tract play a significant role in hindering colonization by Neisseria(1). A healthy vaginal microbiome that is dominated by Lactobacillus spp. is less susceptible to N. gonorrhoeae infection and other sexually transmitted diseases (STDs). […]
attribute-measured: MIC Range

[[record]]
molecule = "CCC(C)n1ncn(-c2ccc(N3CCN(c4ccc(OCC5COC(Cn6cncn6)(c6ccc(Cl)cc6Cl)O5)cc4)CC3)cc2)c1=O (stereo not shown)"
experimental_value = "≥256 µg/mL"


# returns recorded MIC Range (system: L. crispatus) for C[C@@H](c1nc(-c2ccc(C#N)cc2)cs1)[C@](O)(Cn1cncn1)c1cc(F)ccc1F
≥256 µg/mL

# returns recorded MIC Range (system: L. crispatus) for O=c1ccc2ncc(=O)n3c2n1C[C@H]3CN1CCC(NCc2cc3c(cn2)OCCC3)CC1
≤1 µg/mL

# returns recorded MIC Range (system: L. crispatus) for C[C@@H](c1nc(-c2ccc(C#N)cc2)cs1)[C@](O)(Cn1cncn1)c1ccc(F)cc1F
≥256 µg/mL

---

system: L. crispatus; experiment: MIC against commensal vaginal Lactobacillus strains; assay type: cell-based, Lactobacillus crispatus; conditions: Lactobacillus crispatus, L. crispatus HM-638
attribute-measured: MIC

Worked cases, answers included:
[[record]]
compound = "C[C@@H](c1nc(-c2ccc(C#N)cc2)cs1)[C@](O)(Cn1cncn1)c1ccc(F)cc1F"
experimental_value = "> 256 µg/mL"

[[record]]
compound = "CCC(C)n1ncn(-c2ccc(N3CCN(c4ccc(OCC5COC(Cn6cncn6)(c6ccc(Cl)cc6Cl)O5)cc4)CC3)cc2)c1=O (stereo not drawn)"
experimental_value = "> 256 µg/mL"


For the next question, use this compound.
Suppose we examine the compound C[C@@H](c1nc(-c2ccc(C#N)cc2)cs1)[C@](O)(Cn1cncn1)c1cc(F)ccc1F ; what MIC value has been reported?
> 256 µg/mL

---

Tested on: Bifidobacterium angulatum
Assay: MIC against normal gut microbiota
Assay type: cell-based
Details: Bifidobacterium angulatum (1 strain)
From the text: Disrupting the intestinal microbiota using broad-spectrum antimicrobial therapy increases the susceptibility of hosts to C. difficile colonization.
MIC Range for assorted compounds

Suppose we examine the compound C[C@@H](c1nc(-c2ccc(C#N)cc2)cs1)[C@](O)(Cn1cncn1)c1ccc(F)cc1F ; what MIC Range value has been reported?
>256 µg/mL

Suppose we examine the compound C[C@@H](c1nc(-c2ccc(C#N)cc2)cs1)[C@](O)(Cn1cncn1)c1cc(F)ccc1F ; what MIC Range value has been reported?
>256 µg/mL

Suppose we examine the compound CCC(C)n1ncn(-c2ccc(N3CCN(c4ccc(OCC5COC(Cn6cncn6)(c6ccc(Cl)cc6Cl)O5)cc4)CC3)cc2)c1=O (stereo not drawn) ; what MIC Range value has been reported?
>256 µg/mL

---

test system: Enterococcus faecium; assay: MIC against normal gut microbiota; format: cell-based; conditions: Enterococcus faecium (1 strain)
attribute-measured: MIC Range

Worked cases, answers included:
[[record]]
molecule = "C[C@@H](c1nc(-c2ccc(C#N)cc2)cs1)[C@](O)(Cn1cncn1)c1ccc(F)cc1F"
target = "Enterococcus faecium"
attribute_measured = "MIC Range"
experimental_value = ">256 µg/mL"

[[record]]
molecule = "CCC(C)n1ncn(-c2ccc(N3CCN(c4ccc(OCC5COC(Cn6cncn6)(c6ccc(Cl)cc6Cl)O5)cc4)CC3)cc2)c1=O (stereo not drawn)"
target = "Enterococcus faecium"
attribute_measured = "MIC Range"
experimental_value = ">256 µg/mL"


For the next question, use this molecule.
Suppose we examine the molecule C[C@@H](c1nc(-c2ccc(C#N)cc2)cs1)[C@](O)(Cn1cncn1)c1cc(F)ccc1F ; what MIC Range value has been reported?
>256 µg/mL

---

tested on: L. gasseri; assay: MIC against commensal vaginal Lactobacillus strains; format: cell-based, Lactobacillus gasseri; settings: Table 6, L. gasseri (4 strains)
attribute-measured: MIC Range

[[record]]
molecule = "O=c1ccc2ncc(=O)n3c2n1C[C@H]3CN1CCC(NCc2cc3c(cn2)OCCC3)CC1"
attribute_measured = "MIC Range"
experimental_value = "≤1 µg/mL"


Suppose we examine the molecule CCC(C)n1ncn(-c2ccc(N3CCN(c4ccc(OCC5COC(Cn6cncn6)(c6ccc(Cl)cc6Cl)O5)cc4)CC3)cc2)c1=O (stereo not drawn) ; what MIC Range value has been reported?
≥256 µg/mL

Suppose we examine the molecule C[C@@H]1CN2c3c(cc4c(N5C(=O)OC[C@@H]5C)noc4c3F)CC3(C(=O)NC(=O)NC3=O)[C@H]2[C@H](C)O1 ; what MIC Range value has been reported?
≤1 µg/mL

The values you see were collected from patent US20250281464A1.
